Where do the numbers come from? From patent US20060188508A1.

- Tested on: M2182tTA
- experiment: Drug sensitivity by MTT assay (IC50)
- Format: cell-based, human
- cond: Homo sapiens, mean ± SD of three determinations
// reported IC50 per item
Respond with the bare value in nM.

Guide cases for IC50, answers given:
{"columns": ["compound", "IC50 / nM"],
 "data": [
  ["COc1cc([C@@H]2c3cc4c(cc3[C@@H](O[C@@H]3O[C@@H]5CO[C@@H](C)O[C@H]5[C@H](O)[C@H]3O)[C@H]3COC(=O)[C@H]23)OCO4)cc(OC)c1O [Etoposide, etoposide]", 800],
  ["CC(=O)O[C@@]12CO[C@@H]1C[C@H](O)[C@@]1(C)C(=O)[C@H](O)C3=C(C)[C@@H](OC(=O)[C@H](O)[C@@H](NC(=O)OC(C)(C)C)c4ccccc4)C[C@@](O)([C@@H](OC(=O)c4ccccc4)[C@H]21)C3(C)C", 2.66],
  ["CC(=O)O[C@H]1C(=O)[C@@]2(C)[C@H]([C@H](OC(=O)c3ccccc3)[C@]3(O)C[C@H](OC(=O)[C@H](O)[C@@H](NC(=O)c4ccccc4)c4ccccc4)C(C)=C1C3(C)C)[C@]1(OC(C)=O)CO[C@@H]1C[C@@H]2O", 7.2]
]}

Shifting focus to the compound that follows.
Would you please give the reported IC50 of CC[C@]1(O)C[C@@H]2CN(CCc3c([nH]c4ccccc34)[C@@](C(=O)OC)(c3cc4c(cc3OC)N(C)[C@H]3[C@@](O)(C(=O)OC)[C@H](OC(C)=O)[C@]5(CC)C=CCN6CC[C@]43[C@@H]65)C2)C1 with M2182tTA? 7.5
